- protocolSummary: plasma half-life of elimination, two-way crossover oral/intravenous study in dogs
- Type: in vivo, mongrel dogs
- recordedConditions: 10 mg/kg, average of oral and intravenous testing, dog plasma, HPLC; read-out: mean apparent terminal half-life of elimination (converted)
observationType: half-life

[
  {
    "compound": "NC(=O)N1CC(Oc2cccc(C(F)(F)F)c2)C1",
    "half-life": "144 min"
  }
]

Turning to the following compound.
*Q* Given the compound CNC(=O)N1CC(Oc2cccc(C(F)(F)F)c2)C1 [Example 4 of U.S. Pat. No. 4,226,861, reference compound] , what is its reported half-life?
*A* 78 min
